Tested on: TRITICUM AESTIVUM, CV. APOLLO
assay_summary: Postemergence herbicidal evaluation, TRZAWO (Wheat, Winter, CV. APOLLO)
Assay type: in vivo
particulars: 0.063 kg/ha
Procedure: In the tests, seedling plants are grown in jiffy flats for about two weeks. The test compounds are dispersed in 50/50 acetone/water mixtures containing 0.5% TWEEN®20, a polyoxyethylene sorbitan monolaurate surfactant of Atlas Chemical Industries, […] through a spray nozzle operating at 40 psi for a predetermined time. After spraying, the plants are placed on greenhouse benches and are cared for in the usual manner, commensurate with conventional greenhouse practices. […]
measured_metric: Herbicidal effect rating, TRZAWO

>>> print(df.to_string())
                                   compound  experimental_value
0  COC(=O)Cn1c(=O)n(C)c(=O)n(-c2cc(Oc3c(F)cc(C(F)(F)F)cc3Cl)ccc2F)c1=O                 7.3
1  COC(=O)Cn1c(=O)n(C)c(=O)n(-c2cc(Oc3ccc(C(F)(F)F)cc3Cl)ccc2[N+](=O)[O-])c1=O                 6.8
2  Cn1c(=O)[nH]c(=O)n(-c2cc(Oc3ccc(C(F)(F)F)cc3Cl)ccc2[N+](=O)[O-])c1=O [B, reference compound]                 3.0
3  Cn1c(=O)[nH]c(=O)n(-c2cc(Oc3c(F)cc(C(F)(F)F)cc3Cl)ccc2F)c1=O [C, reference compound]                 4.0
4  COC(=O)Cn1c(=O)n(C)c(=O)n(-c2cc(Oc3c(F)cc(C(F)(F)F)cc3Cl)ccc2Br)c1=O                 7.0
